The measured values listed here are drawn from PubChem BioAssay AID1159580.

Test: chemical genetic growth profiling, strain panel (AID 1159580);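 note: tested at 20 µM; growth read once vehicle control cultures reached saturation at 30 °C; 1 = growth at the plate median or of vehicle wells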
Details: S. cerevisiae deletion strains, growth OD, locus YBL061C, strain skt5, stronger effect = lower value
The whole screen tested about 5,500 compounds, of which about 2,000 (36%) were called active. Not shown: some 18% with an inconclusive outcome. The list shows a part of the results.
Let's look at some molecules and their measured normalized growth.

Solved cases (2 shown):
- c1ccc([C@H]2CN3CCSC3=N2)cc1: 1.01 (inactive)
- O=C(CCBr)N1CCN(C(=O)CCBr)CC1: 1.02 (inactive)

Moving on to another molecule below.
Query string: Could you share which normalized growth value was measured for CC(=O)OCC(=O)[C@@]12OC3(CCCC3)O[C@@H]1CC1C3CCC4=CC(=O)C=C[C@]4(C)[C@@]3(F)[C@@H](O)C[C@@]12C (stereo partly drawn) ?
Result string: 1.03 (inactive)

###

Assay: chemical genetic growth profiling, strain panel (AID 1159580)
Conditions: S. cerevisiae deletion strains, growth OD, locus YMR205C, strain PFK2, stronger effect = lower value
Among all 5,500 compounds or so, about 2,000 (36%) were called active. Inconclusive results (about 18%) are left out. This is one part of the list.
normalized growth strictly under 1 means label 1; at 1 or over means label 0.

- CC1=CC2C(C(C)C)CCC(C)(O)C2CC1 (configuration not stated): label 1

Query string: For C#C[C@]1(O)CCC2C3CCC4=Cc5oncc5C[C@]4(C)C3CC[C@@]21C (some centres not stated) , is the recorded normalized growth below the cut-off of 1?
Result string: label 1

Query string: What do you get for `Cc1cc(=O)n(-c2ccccc2)n1C` ?
Result string: label 1

Query string: Next up: `NCCc1cc(O)c(O)cc1O`
Result string: label 1

Query string: Note, next up: C[C@]12CCC(=O)C=C1CCC1C2[C@@H](O)C[C@@]2(C)C1CC[C@]2(O)C(=O)COC(=O)CCC(=O)O (some centres not stated)
Result string: label 0

Query string: Please do the same for CC(NCCC(c1ccccc1)c1ccccc1)c1ccccc1 (configuration not stated) as well.
Result string: label 1

###

Experiment: chemical genetic growth profiling, strain panel (AID 1159580)
Settings: S. cerevisiae deletion strains, growth OD, locus YKL160W, strain elf1, stronger effect = lower value
In all, about 5,500 compounds went through this assay and about 2,000 (36%) were called active. Another 18% or so got no clear call; they are omitted. Some of the results follow.
Lab note - cut at 1 for normalized growth: 1 (yes) if strictly below, 0 (no) if not.

- C#C[C@]1(O)CCC2C3CCC4=Cc5oncc5C[C@]4(C)C3CC[C@@]21C (stereo partly specified): 1 (yes)

Now, please, on to the next compound.
Query string: Is the reported normalized growth for CC(=O)OCC(=O)[C@@]1(O)CCC2C3CCC4=CC(=O)CC[C@]4(C)C3[C@@H](O)C[C@@]21C (stereo partly specified) strictly below 1?
Result string: 0 (no)

###

Reported normalized growth values are given for each entry in this list.
Test: chemical genetic growth profiling, strain panel (AID 1159580)
Settings: S. cerevisiae deletion strains, growth OD, locus YLL026W, stronger effect = lower value
In all, about 5,500 compounds went through this assay and about 2,000 (36%) were called active. Not shown: some 18% with an inconclusive outcome. Some of the results follow.
Just the number.

• C=C(C)[C@@H]1CC[C@]2(CO)CC[C@]3(C)[C@H](CCC4[C@@]5(C)CC[C@H](O)C(C)(C)C5CC[C@]43C)C12 (some centres undefined) = 1
• COc1c2ccoc2cc2oc(C)cc(=O)c12 = 0.992
• CN[C@@H]1[C@@H](O[C@H]2O[C@H](CO)[C@@H](N)[C@H](O)[C@H]2O)O[C@H]2C[C@@H](N)[C@H](O[C@H]3[C@H](O)[C@@H](O)[C@H](N)C[C@@H]3N)O[C@@H]2[C@@H]1O = 1.01
• COc1cnc(NS(=O)(=O)c2ccc(N)cc2)nc1 = 1
• NC(=O)NO = 1.02

Now take the following molecule into account.
Query string: Would you mind telling me what normalized growth value was observed for `COc1ccc2c(=O)ccoc2c1` ?
Result string: 1.02

###

Assay: chemical genetic growth profiling, strain panel (AID 1159580)
Conditions: S. cerevisiae deletion strains, growth OD, locus YEL061C, strain CIN8 (second series), stronger effect = lower value
In all, about 5,500 compounds went through this assay and about 2,000 (36%) were called active. Not shown: some 18% with an inconclusive outcome. This is one part of the list.
So basically: is normalized growth under 1? Then yes (1). Not under? Then no (0).

Example cases with answers are listed next.
• COc1ccc(C(=O)c2ccc(O)cc2)c(O)c1O = yes (1)
• CC(=O)[O][Hg][c]1ccccc1 = yes (1)
• COc1ccc2c(c1)[C@]13CCCC[C@H]1[C@H](C2)N(C)CC3 = yes (1)
• COc1ccc(-c2oc3ccccc3c(=O)c2O)cc1OC = yes (1)

Query string: Problem: For the molecule `CN1CCN(CC(=O)N2c3ccccc3C(=O)Nc3cccnc32)CC1` , is normalized growth under 1?
Result string: no (0)

Query string: # iterate: `CCOc1ccc(C(=O)c2ccc(O)c(O)c2O)cc1`
Result string: yes (1)

###

Test: chemical genetic growth profiling, strain panel (AID 1159580);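 note: tested at 20 µM; growth read once vehicle control cultures reached saturation at 30 °C; 1 = growth at the plate median or of vehicle wells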
Details: S. cerevisiae deletion strains, growth OD, locus YKL009W, strain mrt4, stronger effect = lower value
In all, about 5,500 compounds went through this assay and about 2,000 (36%) were called active. Roughly 18% stayed inconclusive and do not appear here. Some of the results follow. *1 amine or outer side, *2 acyl side, *3 side chain or, on linkers, in order; H or OH if unused. Where a SMILES comes first, the peptide text is derived from it. Bridges are numbered along the chain shown (N, C = ends). [ ]: non-standard residue; d: D form. The star is where a group is joined. ξ: configuration not given here. ΔAla(E,3-NHCONH2) = NC(=O)N/C=C(/N)C(=O)O; X2 = NC1=NCCC(C(N[*:1])C(=O)[*:2])N1; ξβ3hOrn = NCCCC(N)CC(=O)*; Dap = NC[CH](N)C(=O)O
Define the label as true when normalized growth is strictly less than 1 and as false in all remaining cases.

• O=C(O)c1cc([N+](=O)[O-])ccc1NCCCc1ccccc1 = true
• CC(=O)Oc1cc2c(c(C)c1OC(C)=O)CC1OC13C2(C)CCC1(C)C2CC(C)(C(=O)O)CCC2(C)CCC13C (centres undefined) = true
• COC(=O)[C@]1(C)CC[C@]2(C)CC[C@]3(C)C4=CC=C5C(=CC(=O)C(O)=C5C)[C@]4(C)CC[C@@]3(C)[C@@H]2C1 = false
• NCCCC(N)CC(=O)NCC1NC(=O)C(CO)NC(=O)C(N)CNC(=O)C(C2CCN=C(N)N2)NC(=O)/C(=C\NC(N)=O)NC1=O (stereo not drawn) (H-[Dap]S[Dap](ξβ3hOrn)[ΔAla(E,3-NHCONH2)][X2]; lactam 1-C; configuration not given here) = false
• O=c1c(O)c(-c2ccc(O)c(O)c2)oc2cc(O)ccc12 = false

Query string: Record `CC1=C(O)C(=O)C=C2C1=CC=C1[C@@]2(C)CC[C@@]2(C)[C@@H]3C[C@](C)(C(=O)O)CC[C@]3(C)CC[C@]12C` : is its normalized growth strictly below 1?
Result string: true

Query string: Another molecule: COc1cc2c(cc1O)CCNC2C (centres undefined)
Result string: true

Query string: Try this molecule next: CC(=O)OCC(=O)[C@@]12OC3(CCCC3)O[C@@H]1CC1C3CCC4=CC(=O)C=C[C@]4(C)[C@@]3(F)[C@@H](O)C[C@@]12C (some centres undefined)
Result string: true

###

Experiment: chemical genetic growth profiling, strain panel (AID 1159580);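 note: tested at 20 µM; growth read once vehicle control cultures reached saturation at 30 °C; 1 = growth at the plate median or of vehicle wells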
Conditions: S. cerevisiae deletion strains, growth OD, locus YLR357W, strain rsc2, stronger effect = lower value
Out of some 5,500 compounds screened, about 2,000 (36%) were called active. Roughly 18% stayed inconclusive and do not appear here. Some of the results follow.
reported_metric: normalized growth
I only need the number, thanks.

Sample answers from the record:
* Cc1onc(-c2ccccc2Cl)c1C(=O)N[C@@H]1C(=O)N2[C@@H]1SC(C)(C)[C@@H]2C(=O)O | 1.03
* CC1(C)S[C@@H]2[C@H](NC(=O)Cc3ccccc3)C(=O)N2[C@H]1C(=O)O | 1.03
* CCCc1nc2c(C)cc(-c3nc4ccccc4n3C)cc2n1Cc1ccc(-c2ccccc2C(=O)O)cc1 | 1.03
* CC(=O)CC1CCCCN1 (stereo unspecified) | 0.995
* COc1cccc(OC)c1C(=O)N[C@@H]1C(=O)N2[C@@H]1SC(C)(C)[C@@H]2C(=O)O | 0.994

Query string: Fill in: normalized growth of C1CCC(C(CC2CCCCN2)C2CCCCC2)CC1 (stereo unspecified) is ___
Result string: 0.963

###

Test: chemical genetic growth profiling, strain panel (AID 1159580);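 note: tested at 20 µM; growth read once vehicle control cultures reached saturation at 30 °C; 1 = growth at the plate median or of vehicle wells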
Settings: S. cerevisiae deletion strains, growth OD, locus YDL035C, strain GPR1, stronger effect = lower value
Among all 5,500 compounds or so, about 2,000 (36%) were called active. Inconclusive results (about 18%) are left out. This is one part of the list.
Hi! Could you tag entries with normalized growth below 1 as 1, and those at or above as 0? Much appreciated.

Observe how each entry below is paired with its result.
• O=c1c(O)c(-c2ccc(O)c(O)c2)oc2cc(O)ccc12 = 1
• CC1=CC2C(C(C)C)CCC(C)(O)C2CC1 (centres undefined) = 1
• OCCN1CCN(CCCN2c3ccccc3Sc3ccc(C(F)(F)F)cc32)CC1 = 1
• Cc1cc(C(C)(C)C)cc(C)c1CC1=NCCN1 = 0
• COc1cc(O)cc(OC)c1OC = 0

# input for lookup
Query string: Given `CN1CCN(CCCN2c3ccccc3Sc3ccc(C(F)(F)F)cc32)CC1` , is recorded normalized growth strictly lower than 1?
Result string: 1
